Tested on: T47D cells
assay overview: Anti-proliferation (viability) of ER+ breast cancer T47D cells, 6 days (Table 7, FIG. 2B)
Type: cell-based
condition description: Homo sapiens, 144 h; T47D cells, 6 days, 10-point serial dilution; read-out: GI IC50 in T47D
Description: To evaluate anti-proliferation activities of heterobifunctional compounds, NSCLC Calu-1 or ER+ breast cancer T47D cells were treated with selected heterobifunctional compounds following a 10-point serial dilution for 3 or 6 days, respectively. To verify that heterobifunctional compound-mediated degradation is dependent on the binding to CDK4-cyclin D complex, a negative control compound, CPD-143, which is derived from active heterobifunctional compound CPD-10 was designed. […]
pIC50: −log10 of the molar value.
Catalogue of pIC50 values

compound	pIC50
CNc1ccc(C(=O)Nc2cc(C)n(C)n2)c(NC2CC3(C2)CN(C(=O)CCN2CCN(c4ccc(Nc5ncc6c(C)c(C(C)=O)c(=O)n(C7CCCC7)c6n5)nc4)CC2)C3)n1	7.00 to 7.30
CNc1ccc(C(=O)Nc2ccc(N(C)C)nn2)c(NC2CC(CCNC(=O)N3CCN(c4ccc(Nc5ncc6c(C)c(C(C)=O)c(=O)n(C7CCCC7)c6n5)nc4)CC3)C2)n1 (stereo not drawn)	7.00 to 7.30
CNc1ccc(C(=O)Nc2ccc(N(C)C)nn2)c(NC(C)CCCCNC(=O)CN2CCN(c3ccc(Nc4ncc5c(C)c(C(C)=O)c(=O)n(C6CCCC6)c5n4)nc3)CC2)n1 (stereo not drawn)	7.00 to 7.30
